Hey, just so you know, these numbers are from the Deep4Chem optical property database.

- assay.text: photoluminescence quantum yield (fraction); solvent given as SMILES
- protocol.conditions: in CC#N
recorded.endpoint: photoluminescence quantum yield
Numbers only.

Consider the following illustrative entries.
| compound | photoluminescence quantum yield |
| --- | --- |
| CCCCCCCCC1(CCCCCCCC)c2cc(C#CC#Cc3ccc(N(c4ccccc4)c4ccccc4)cc3)ccc2-c2ccc(C=O)cc21 | 0.2 |
| CC1(C)CC(=O)C2=C(C1)Oc1ccc3cc(O)ccc3c1C2c1ccccn1 (stereo not drawn) | 0.082 |
| CCCCCCc1ccc2c3c(ccc2c1)O[B-](c1ccccc1)(c1ccccc1)[N+](c1cc([N+]2=Cc4c(ccc5cc(CCCCCC)ccc45)O[B-]2(c2ccccc2)c2ccccc2)cc([N+]2=Cc4c(ccc5cc(CCCCCC)ccc45)O[B-]2(c2ccccc2)c2ccccc2)c1)=C3 | 0.19 |
| COc1ccc2c3c(cccc13)C(=O)c1ccccc1-2 | 0.62 |
| CC1=CC(/C=C/c2ccc([N+](C)(C)C)cc2)=[N+]2C1=C(c1ccc(I)cc1)c1c(C)cc(/C=C/c3ccc([N+](C)(C)C)cc3)n1[B-]2(F)F | 0.69 |

Give photoluminescence quantum yield for each listed item.
1. c1ccc(-c2nc3c(ccc4[nH]ccc43)o2)cc1
2. CC1=CC(c2ccc3cc(N(C)C)ccc3c2)=[O+][B-](F)(F)O1
3. Cc1ccc(C2=[N+]3C(=Cc4c(C)cc(C)n4[B-]3(F)F)c3ccccc32)[nH]1

1: 0.72; 2: 0.14; 3: 0.84
